system: HCC1954; experiment: In vitro cell assay (Cell Titer Glo), HCC1954; type: cell-based, Human; conditions: Homo sapiens, HCC1954, 144 h; Table 2; 6 days exposure
Numbered stars: 1 amine (or outer) side, 2 acyl side, 3 side chain; on linkers, the order of the positions; unused ones are H or OH. Square brackets hold non-standard residues; d marks the D form. Peptide text beside a SMILES is read from it. * marks the point of attachment. Butanoyl(3R-OMe,4S-NMe,4-Cy) = CO[C@H](CC(=O)[*:2])[C@H](C1CCCCC1)N(C)[*:1]; Dolaproine = CO[C@@H]([C@@H]1CCCN1)[C@@H](C)C(=O)O; X2 = CO[C@H](CC(=O)[*:2])[C@H](C1CCCC1)N(C)[*:1]; Aib = CC(C)(N)C(=O)O; OtBu = CC(C)(C)O*
Let's look at some compounds and their measured IC50.
Write it as a number; the unit nM goes unstated.

1) CO[C@H]([C@@H](C)C(=O)N[C@@H](Cc1ccccc1)c1nccs1)[C@@H]1CCCN1C(=O)C[C@@H](OC)[C@H](C1CCCC1)N(C)C(=O)[C@@H](NC(=O)C(C)(C)N)C(C)C = 0.405
2) CO[C@H]([C@@H](C)C(=O)N[C@@H](Cc1ccccc1)C(=O)OC(C)(C)C)[C@@H]1CCCN1C(=O)C[C@@H](OC)[C@H](C1CCCC1)N(C)C(=O)[C@@H](NC(=O)C(C)(C)N)C(C)C [Compound 21] (H-[Aib]V[X2][Dolaproine]F-OtBu) = 0.296

Entry CO[C@H]([C@@H](C)C(=O)N[C@H](C)[C@@H](O)c1ccccc1)[C@@H]1CCCN1C(=O)C[C@@H](OC)[C@H](C1CCCC1)N(C)C(=O)[C@@H](NC(=O)C(C)(C)N)C(C)C ; IC50 = 0.623

Entry CO[C@H]([C@@H](C)C(=O)N[C@@H](Cc1ccccc1)C(=O)OC(C)(C)C)[C@@H]1CCCN1C(=O)C[C@@H](OC)[C@H](C1CCCCC1)N(C)C(=O)[C@@H](NC(=O)C(C)(C)N)C(C)C [Compound 22] (H-[Aib]V[Butanoyl(3R-OMe,4S-NMe,4-Cy)][Dolaproine]F-OtBu) ; IC50 = 0.112

Entry CO[C@H]([C@@H](C)C(=O)N[C@@H](Cc1ccccc1)c1nccs1)[C@@H]1CCCN1C(=O)C[C@@H](OC)[C@H](C1CCCCC1)N(C)C(=O)[C@@H](NC(=O)C(C)(C)N)C(C)C ; IC50 = 0.31

Entry CO[C@H]([C@@H](C)C(=O)N[C@H](C)[C@@H](O)c1ccccc1)[C@@H]1CCCN1C(=O)C[C@@H](OC)[C@H](C1CCCCC1)N(C)C(=O)[C@@H](NC(=O)C(C)(C)N)C(C)C ; IC50 = 0.466

----------
tested on: HCC1954; test: In vitro cell assay (Cell Titer Glo), HCC1954; format: cell-based, Human; settings: Table 2; 6 days exposure
MEASUREMENT_LABEL: pIC50
Reminder that pIC50 is minus the log10 of a molar concentration.

Entry N.N.[Cl][Pt][Cl] [Cisplatin, reference compound] ; pIC50 = 5.49
